Below, each entry is listed alongside its reported logD.
# experimental_details: Lipophilicity, log D of the compound at pH 7.4
# Format: physicochemical
# conditions: buffer

{"columns": ["record_smiles", "value_relation_sign", "logD"],
 "data": [
  ["Nc1ccc(-c2cccc(Oc3ccc4c(c3)c(=O)ncn4Cc3c(F)cc(F)cc3F)c2C(F)(F)F)cn1", "=", 3.9],
  ["O=c1ncn(Cc2c(F)cc(F)cc2F)c2ccc(Oc3cccc(-c4ccc5[nH]cnc5c4)c3C(F)(F)F)cc12", "=", 4.7],
  ["O=c1ncn(Cc2c(F)cc(F)cc2F)c2ccc(Oc3ccc(-c4ccc5[nH]ccc5c4)cc3)cc12", "=", 4.4],
  ["Cc1ccc(-c2cccc(Oc3ccc4c(c3)c(=O)ncn4Cc3c(F)cc(F)cc3F)c2C(F)(F)F)cn1", "=", 4.2],
  ["Cc1cc(-c2cccc(Oc3ccc4c(c3)c(=O)ncn4Cc3c(F)cc(F)cc3F)c2C(F)(F)F)cnc1N", ">", 4.7],
  ["O=c1ncn(Cc2c(F)cc(F)cc2F)c2ccc(Oc3cccc(-c4ccc5[nH]ccc5c4)c3C(F)(F)F)cc12", "=", 5.1],
  ["O=c1ncn(Cc2c(F)cc(F)cc2F)c2ccc(Oc3cccc(-c4ccc5cc[nH]c5c4)c3C(F)(F)F)cc12", "=", 5]
]}

----------
# System: Hepatitis C virus
# experimental_details: Antiviral activity against HCV genotype 1b infected in human HuH7-J cells assessed as inhibition of viral RNA replication after 72 hrs by poliovirus internal ribosomal entry site incorporating luciferase reporter gene assay
# Type: functional, organism-based, Hepacivirus hominis
# conditions: Huh-7, 72 h
pEC50: −log10 of the molar value.

{"columns": ["record_smiles", "experimental_system", "pEC50"],
 "data": [
  ["O=c1ncn(Cc2c(F)cc(F)cc2F)c2ccc(Oc3cccc(-c4ccc5[nH]ccc5c4)c3C(F)(F)F)cc12", "Hepatitis C virus", 9.96]
]}

----------
Each item that follows carries a reported solubility thermodynamic at 24 h.
# experimental_details: Solubility of the compound in form of lyophilized, amorphous solid at pH 2 after 24 hrs by shake flask method
# Format: physicochemical
# conditions: buffer

{"columns": ["record_smiles", "solubility thermodynamic at 24 h"],
 "data": [
  ["O=c1ncn(Cc2c(F)cc(F)cc2F)c2ccc(Oc3cccc(-c4ccc5[nH]cnc5c4)c3C(F)(F)F)cc12", "< 0.1 µg/mL"],
  ["O=c1ncn(Cc2c(F)cc(F)cc2F)c2ccc(Oc3cccc(-c4ccc5cc[nH]c5c4)c3C(F)(F)F)cc12", "< 0.1 µg/mL"],
  ["Cc1ccc(-c2cccc(Oc3ccc4c(c3)c(=O)ncn4Cc3c(F)cc(F)cc3F)c2C(F)(F)F)cn1", "180 µg/mL"],
  ["Nc1ccc(-c2cccc(Oc3ccc4c(c3)c(=O)ncn4Cc3c(F)cc(F)cc3F)c2C(F)(F)F)cn1", "0.3 µg/mL"],
  ["O=c1ncn(Cc2c(F)cc(F)cc2F)c2ccc(Oc3ccc(-c4ccc5[nH]ccc5c4)cc3)cc12", "< 0.1 µg/mL"],
  ["Cc1cc(-c2cccc(Oc3ccc4c(c3)c(=O)ncn4Cc3c(F)cc(F)cc3F)c2C(F)(F)F)cnc1N", "74 µg/mL"],
  ["O=c1ncn(Cc2c(F)cc(F)cc2F)c2ccc(Oc3cccc(-c4ccc5[nH]ccc5c4)c3C(F)(F)F)cc12", "< 0.1 µg/mL"]
]}

----------
# experimental_details: Solubility of the compound in form of lyophilized, amorphous solid at pH 6.8 after 24 hrs by shake flask method
# Assay type: physicochemical
# conditions: buffer

{"columns": ["record_smiles", "solubility thermodynamic at 24 h"],
 "data": [
  ["O=c1ncn(Cc2c(F)cc(F)cc2F)c2ccc(Oc3cccc(-c4ccc5cc[nH]c5c4)c3C(F)(F)F)cc12", "< 0.1 µg/mL"],
  ["Cc1cc(-c2cccc(Oc3ccc4c(c3)c(=O)ncn4Cc3c(F)cc(F)cc3F)c2C(F)(F)F)cnc1N", "< 0.1 µg/mL"],
  ["Cc1ccc(-c2cccc(Oc3ccc4c(c3)c(=O)ncn4Cc3c(F)cc(F)cc3F)c2C(F)(F)F)cn1", "< 0.1 µg/mL"]
]}

----------
# experimental_details: Solubility of the compound in form of lyophilized, amorphous solid at pH 6.8 after 24 hrs by shake flask method
# Format: physicochemical
# conditions: buffer
List of solubility thermodynamic at 24 h values.
experimental_endpoint: solubility thermodynamic at 24 h

{"columns": ["record_smiles", "experimental_endpoint", "reported_value"],
 "data": [
  ["Nc1ccc(-c2cccc(Oc3ccc4c(c3)c(=O)ncn4Cc3c(F)cc(F)cc3F)c2C(F)(F)F)cn1", "solubility thermodynamic at 24 h", "< 0.1 µg/mL"],
  ["O=c1ncn(Cc2c(F)cc(F)cc2F)c2ccc(Oc3cccc(-c4ccc5[nH]cnc5c4)c3C(F)(F)F)cc12", "solubility thermodynamic at 24 h", "< 0.1 µg/mL"],
  ["O=c1ncn(Cc2c(F)cc(F)cc2F)c2ccc(Oc3cccc(-c4ccc5[nH]ccc5c4)c3C(F)(F)F)cc12", "solubility thermodynamic at 24 h", "< 0.1 µg/mL"],
  ["O=c1ncn(Cc2c(F)cc(F)cc2F)c2ccc(Oc3ccc(-c4ccc5[nH]ccc5c4)cc3)cc12", "solubility thermodynamic at 24 h", "0.18 µg/mL"]
]}

----------
# System: Hepatitis C virus
# experimental_details: Antiviral activity against HCV genotype 1b expressing HCV genotype 5a NS5B infected in human HuH7-J cells assessed as inhibition of viral RNA replication after 72 hrs by poliovirus internal ribosomal entry site incorporating luciferase reporter gene assay
# Type: functional, organism-based, Hepacivirus hominis
# conditions: Huh-7, 72 h
experimental_endpoint: EC50 (nM)

{"columns": ["record_smiles", "experimental_system", "experimental_endpoint", "reported_value"],
 "data": [
  ["O=c1ncn(Cc2c(F)cc(F)cc2F)c2ccc(Oc3cccc(-c4ccc5[nH]ccc5c4)c3C(F)(F)F)cc12", "Hepatitis C virus", "EC50", 1.3]
]}
